B1: CPEB3 Ribozyme (parent)
chain: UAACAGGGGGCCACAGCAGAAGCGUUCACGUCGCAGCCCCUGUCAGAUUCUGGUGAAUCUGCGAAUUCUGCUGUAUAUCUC

variants of: B1; assay: self-cleavage, relative activity (ratio to wild type); higher = more cleavage; in vitro, sequencing
Overview of recorded self-cleavage for various variants
PARAMETER_MEASURED: self-cleavage

SEQUENCE_CODE | PARAMETER_MEASURED | VAL
UAACAGGGGGCCACAGCAGAAGCGUUCGCGUCGCAGCCCCUGUCAGGUUCUGGUGAAUCUGCGAAUUCUGCUGUAUAUCUC [A28G A47G] | self-cleavage | 0.52
UAACAGGGGGCCACAGCAGAAGCGUUCACAUCGCAGCCCCUGUCAGAUUCUGGUGAAUCUGCGAAUUCGGCUGUAUAUCUC [G30A U69G] | self-cleavage | 0.19
UAACAGGGGGCCACAGCAGAAGCUUUCACGUCGCAGCCCCUGUCUGAUUCUGGUGAAUCUGCGAAUUCUGCUGUAUAUCUC [G24U A45U] | self-cleavage | 0.18
UAACAGGGGGCCACAGCAGAAUCGCUCACGUCGCAGCCCCUGUCAGAUUCUGGUGAAUCUGCGAAUUCUGCUGUAUAUCUC [G22U U25C] | self-cleavage | 0.2
UAACAGGGGGCCACAGCAGAAGCGUUCUCGUCGCAGCCCCGGUCAGAUUCUGGUGAAUCUGCGAAUUCUGCUGUAUAUCUC [A28U U41G] | self-cleavage | 0.14
UAGCAGGGGGCCACAGCAGAAGCGUUCACGUCGCAGCCCCUGUCAGAUUCUGGUGAAUCUGCGAAUUGUGCUGUAUAUCUC [A3G C68G] | self-cleavage | 0.47
UAACAGGGGGCCACAGCAGAAGCGUUCACGCCGCAGCCCCUAUCAGAUUCUGGUGAAUCUGCGAAUUCUGCUGUAUAUCUC [U31C G42A] | self-cleavage | 0.35
UAACAGGGGGCCACAGCAGAAGCGUUCACGUCGCAGCCCCUGUCAGAUUCAGGUGAAUCUGCGGAUUCUGCUGUAUAUCUC [U51A A64G] | self-cleavage | 0.93
UAACAGGGGGCCUCAGCAGAAGCGUUCACGUCGCAGCCCCUGUCAGAUUCUGGUGACUCUGCGAAUUCUGCUGUAUAUCUC [A13U A57C] | self-cleavage | 0.7
UAACAGGGGGCCACAGCAGAAGCGUUCACGUCGCAGCCCCUGUCAGAUUCUGGUGAAUCUGCGAAUUCUGCUGUAUAUUUC [C79U] | self-cleavage | 1.17
UAACAGGGGGCCACAGCAGAAGCGUUCACGUCGCAGCCCCUGUCAGAUUCUGGUGUACCUGCGAAUUCUGCUGUAUAUCUC [A56U U58C] | self-cleavage | 0.3
UCACAGGGGGCCACAGCAGAAGCGCUCACGUCGCAGCCCCUGUCAGAUUCUGGUGAAUCUGCGAAUUCUGCUGUAUAUCUC [A2C U25C] | self-cleavage | 0.49
CAACAGGGGGCCACAGCAGAAGCGUUCACGUCGCAGCCCCUGUCAGAUUCUGGUGGAUCUGCGAAUUCUGCUGUAUAUCUC [U1C A56G] | self-cleavage | 0.73
UAACAGGGGGCCACAGCAGAAGCGUUCACAUCGCAGCCCCUGUCUGAUUCUGGUGAAUCUGCGAAUUCUGCUGUAUAUCUC [G30A A45U] | self-cleavage | 0.32
UAACAGGCGGCCACAGCAGAAGCGUUCACGCCGCAGCCCCUGUCAGAUUCUGGUGAAUCUGCGAAUUCUGCUGUAUAUCUC [G8C U31C] | self-cleavage | 0.38
UAACAGGGGGCCACAGCAGAAGCGUUCACGUCGCUUCCCCUGUCAGAUUCUGGUGAAUCUGCGAAUUCUGCUGUAUAUCUC [A35U G36U] | self-cleavage | 0.1
UAACAGGGGGCCACAGCAGAAGCGUUCACGUCGCAGCCCCUGUCAGAUUCUGUUGAAUCUGCGAUUUCUGCUGUAUAUCUC [G53U A65U] | self-cleavage | 0.25
UAACAGGGGGCCACAGCAGAAGCGUUCACGUCGCAGCCCCUGUCAGAUUCUGGUGAAUCCGCGAAUUCUUCUGUAUAUCUC [U60C G70U] | self-cleavage | 0.44
UAACAGGGGGCCACAGCAGAAGAGUUCACGUCGCAGCCCCUGUCAGAUACUGGUGAAUCUGCGAAUUCUGCUGUAUAUCUC [C23A U49A] | self-cleavage | 0.25
UAACAGGGGGCCACAGCAGAUGCGUUCACGUCGCAGCCCCUGUCAGAUUCUGGUGAAUCUGCGAAUUCUGCCGUAUAUCUC [A21U U72C] | self-cleavage | 0.53
UAACAGGGGGCCACAGCAGAAGCGAGCACGUCGCAGCCCCUGUCAGAUUCUGGUGAAUCUGCGAAUUCUGCUGUAUAUCUC [U25A U26G] | self-cleavage | 0.29
UAACAGGGUGCCACAGCAGGAGCGUUCACGUCGCAGCCCCUGUCAGAUUCUGGUGAAUCUGCGAAUUCUGCUGUAUAUCUC [G9U A20G] | self-cleavage | 0.34
UAACAGGGGGCCACAGCAGGAGCGUUCACGUCGCAGCCCCUGUCAGAUUCUGGUGAAUCUGCGAAUUCUGCUGUAUAUUUC [A20G C79U] | self-cleavage | 0.85
UAACAGGGGGCCACUGGAGAAGCGUUCACGUCGCAGCCCCUGUCAGAUUCUGGUGAAUCUGCGAAUUCUGCUGUAUAUCUC [A15U C17G] | self-cleavage | 0.36
UAACUGGGGGCCACAGCAGAAGCGUUCAUGUCGCAGCCCCUGUCAGAUUCUGGUGAAUCUGCGAAUUCUGCUGUAUAUCUC [A5U C29U] | self-cleavage | 0.54
UAACAGGAGGCCACAGCAGAAGCGUUCACGUCGCAGCCCCUGUCAGAUUCUGGUGAAUCUGCGAAUUCUGCUGUUUAUCUC [G8A A75U] | self-cleavage | 0.24
UAACGGGGGGCCACAGCAGAAGCGUUCACGUCGCAGCCCCUGUCAGAUUCUGGUGAAUUUGCGAAUUCUGCUGUAUAUCUC [A5G C59U] | self-cleavage | 0.65
UAACAGGGGGCCACGGCAGAAACGUUCACGUCGCAGCCCCUGUCAGAUUCUGGUGAAUCUGCGAAUUCUGCUGUAUAUCUC [A15G G22A] | self-cleavage | 0.22
UAACAGGGGGCCACAGCAGAAGCGUUCACGUCGCAGGCCCUGUCAGAUUCUGGUGAAUGUGCGAAUUCUGCUGUAUAUCUC [C37G C59G] | self-cleavage | 0.13
UAACAGGGGACCACAGCAGAAGCGUUCACGUCGCAGCCCCUGCCAGAUUCUGGUGAAUCUGCGAAUUCUGCUGUAUAUCUC [G10A U43C] | self-cleavage | 0.06
UAACAGGGGGCCACAGCAGAAGCGUUCACGUCGCAACCCCUGUCAGUUUCUGGUGAAUCUGCGAAUUCUGCUGUAUAUCUC [G36A A47U] | self-cleavage | 0.13
UAACAGGGGGCCACAGCAGAAGCGUUCACGUCGCAGCCCCUGUCAGAUUCUGGUGAAUCUACGAAUGCUGCUGUAUAUCUC [G61A U67G] | self-cleavage | 0.25
UAACAGGGGGCCAGAGCAGAAGCGUUCACGUCGCAGCCCCUGUCAGAUUCUGGUGAAUCUGCGAUUUCUGCUGUAUAUCUC [C14G A65U] | self-cleavage | 0.26
UAACAGGGGGCCACAGCAGAAGCGUUCUCGUCGCAGCCCCUGUCAGAUUCUGGUGAAUCAGCGAAUUCUGCUGUAUAUCUC [A28U U60A] | self-cleavage | 0.26
UAACAGGGGGCCACAGCAGAAGCGUUCACGUCGCAGCCCGGGUCAGAUUCUGGUGAAUCUGCGAAUUCUGCUGUAUAUCUC [C40G U41G] | self-cleavage | 0.6
UAACAGGGGGCCACAGCAGAAGCGUUCACAUCGCAGCCCCUGUCAGAUUCUGGUGAAUCUGCGAAUUCUGCUGUAUAUCUC [G30A] | self-cleavage | 0.29
UAACAGGGGGCCACAGCGUAAGCGUUCACGUCGCAGCCCCUGUCAGAUUCUGGUGAAUCUGCGAAUUCUGCUGUAUAUCUC [A18G G19U] | self-cleavage | 0.32
UAACAGAGGGCCACAGCAGAAGCGUUCACGUCGCAGCCCCUGUCAGAUUCUGGUGAAUCUGCGUAUUCUGCUGUAUAUCUC [G7A A64U] | self-cleavage | 0.18
UCACAGGGGGCCACAGCAGAAGCGUUCACGUCGCAACCCCUGUCAGAUUCUGGUGAAUCUGCGAAUUCUGCUGUAUAUCUC [A2C G36A] | self-cleavage | 0.22
UAACAAGGGGCCACAGCAGAAGCGUUCACGUCGCAGCCCUUGUCAGAUUCUGGUGAAUCUGCGAAUUCUGCUGUAUAUCUC [G6A C40U] | self-cleavage | 0.33
UAACAGGGGGCCCCAGCAGAAGCGUUCACGUCGCAGCCCAUGUCAGAUUCUGGUGAAUCUGCGAAUUCUGCUGUAUAUCUC [A13C C40A] | self-cleavage | 0.26
UAACAGGGGGCCACAGCAGAAGCGCUCACGUCGCAGCUCCUGUCAGAUUCUGGUGAAUCUGCGAAUUCUGCUGUAUAUCUC [U25C C38U] | self-cleavage | 0.68
UAACAGGGGGCCACAGCAGAAGCGUUCACGACGCAGCCCCUGUCAGAUUCUGGUGAAUCUGCGAAUUCUGCUGUAUGUCUC [U31A A77G] | self-cleavage | 0.32
UAACAGGGGGCCACAGCAGAAGCGUUCACGUCGCCGCCCCUGUCAGAUUCUGGUGAAUCUGCGAAUUCUGCUGUGUAUCUC [A35C A75G] | self-cleavage | 0.87
UAACAGGGGGCCACAGAAGAAGCGUUCGCGUCGCAGCCCCUGUCAGAUUCUGGUGAAUCUGCGAAUUCUGCUGUAUAUCUC [C17A A28G] | self-cleavage | 0.22
UAACAGGGGGCCAUAGCAGAAGCGUUCACGUCGCAGCACCUGUCAGAUUCUGGUGAAUCUGCGAAUUCUGCUGUAUAUCUC [C14U C38A] | self-cleavage | 0.14
